Recorded measurements of PBM binding z-score, one per entry
# Tested on: LXRb homodimer (NR concentration 270 nM)
# assay_remarks: PBM binding z-score (relative to random genomic background probes); higher = stronger binding; sequences stand for … in GC…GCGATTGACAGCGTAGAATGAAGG
property: PBM binding z-score

# residues, property, assay_value
data = [
    ("CCTCGGAGGACAACAGGAGGTCAGGGCTGCCAGA", "PBM binding z-score", -0.784),
    ("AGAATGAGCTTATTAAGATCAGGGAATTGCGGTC", "PBM binding z-score", -0.756),
    ("ACTATTAGTTGACCTAGGGCAACCGATACGACGC", "PBM binding z-score", 1.09),
    ("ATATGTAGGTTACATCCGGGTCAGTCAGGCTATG", "PBM binding z-score", 0.572),
    ("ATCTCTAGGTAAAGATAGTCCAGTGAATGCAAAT", "PBM binding z-score", 0.398),
    ("CAAACTAGGTCACCGGAAGGTCAAGGTCCGCATG", "PBM binding z-score", 0.998),
    ("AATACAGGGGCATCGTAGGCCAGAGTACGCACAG", "PBM binding z-score", 0.436),
    ("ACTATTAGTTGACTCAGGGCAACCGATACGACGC", "PBM binding z-score", 0.862),
    ("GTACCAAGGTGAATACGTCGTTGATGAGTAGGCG", "PBM binding z-score", -0.867),
    ("ACAGACAGGTGAGTGAAGGTATCTCAGCTGGACG", "PBM binding z-score", -0.39),
    ("AGAATGAGGTTATACGTAGATCAGGCAAGAAAGT", "PBM binding z-score", -0.0449),
    ("CCTCGGAGGACAGAAGGTCAGGGCTGTCCGCTTT", "PBM binding z-score", -1.01),
]

###

# System: PPARg:RXRa 90nM:30nM, anti-RXR (NR concentration 90 nM, RXRa partner concentration 30 nM)
# assay_remarks: PBM binding z-score (relative to random genomic background probes); higher = stronger binding; sequences stand for … in GC…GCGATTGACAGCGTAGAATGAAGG
Label Condition met for high-side PBM binding z-score (at or above 4) and Condition not met for low-side PBM binding z-score (below it).

# residues, class
data = [
    ("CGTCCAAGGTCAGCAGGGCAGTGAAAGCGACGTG", "Condition not met"),
    ("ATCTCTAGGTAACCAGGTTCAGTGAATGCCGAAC", "Condition not met"),
    ("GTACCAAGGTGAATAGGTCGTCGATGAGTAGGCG", "Condition not met"),
    ("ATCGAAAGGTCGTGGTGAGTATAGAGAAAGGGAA", "Condition not met"),
    ("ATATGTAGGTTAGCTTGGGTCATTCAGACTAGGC", "Condition not met"),
    ("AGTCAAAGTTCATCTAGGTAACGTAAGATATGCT", "Condition met"),
    ("GCTAGCAGGCCATTTGGGTCAATCAATGACGGGC", "Condition not met"),
    ("CCAGACAGGTGAAGGGTAACTCAGTCTGGTACGC", "Condition not met"),
    ("TCTATTTGGTCAAAGGTCACACACTCGAAATGCG", "Condition met"),
    ("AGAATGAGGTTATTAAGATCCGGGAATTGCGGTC", "Condition not met"),
    ("TCATATAGGTATACAGGTGAAAGTCCGTAAGTTA", "Condition not met"),
    ("CCTGCTAGGTCGATGGTCAGCTAAAGCAGCTCGC", "Condition not met"),
    ("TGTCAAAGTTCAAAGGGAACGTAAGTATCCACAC", "Condition met"),
    ("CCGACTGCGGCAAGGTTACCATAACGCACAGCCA", "Condition not met"),
    ("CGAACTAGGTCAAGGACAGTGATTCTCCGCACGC", "Condition met"),
    ("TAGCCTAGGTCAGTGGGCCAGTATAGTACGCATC", "Condition not met"),
    ("CCGACTGGGGCAAAGGTTATCATACTCAGTACGA", "Condition met"),
    ("CCGACTGGAGCAAAGGTTACCATACTCAGTACGA", "Condition met"),
    ("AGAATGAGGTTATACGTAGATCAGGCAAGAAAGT", "Condition not met"),
    ("ATATGTACGTTAAGGGTCATTCAGGTTGGTTCGC", "Condition met"),
    ("CCTCGGAGGACAGCAGGTCAGAGCTGTCCGCTTT", "Condition not met"),
    ("TAATATAGGTAAACAGGTGAAAGTCCGTAAGTTA", "Condition met"),
    ("TCTAACAGGCCAGAGGGTCACTCAAGAGGTACGG", "Condition not met"),
    ("ACAGACAGGTAAGTGAAGGTAACTCAGCTGGACG", "Condition not met"),
    ("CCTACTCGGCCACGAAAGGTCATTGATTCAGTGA", "Condition not met"),
    ("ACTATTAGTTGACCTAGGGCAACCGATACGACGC", "Condition not met"),
]
